Assay: qHTS Multiplex Assay to Identify Dual Action Probes in a Cell Model of Huntington: Cytoprotection (ATP);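 note: toxic huntingtin expression switched on by the ecdysone agonist tebufenozide; % of control where 0% means no effect; nearly all actives have a fitted effect of over 45% in size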
Conditions: PC12 HTT-Q103 induced, ATP luminescence, 40 h; series mostly up to 56.4 µM
Text: NIH Chemical Genomics Center [NCGC] NIH Molecular Libraries Probe Production centers Network [MLPCN] Assay Submitter (PI): Wei Zheng […] A stable PC12 cell line containing a gene fusion of Exon 1 of the Huntingtin gene linked to GFP under the control of the inducible ecdysone promoter were used as the cell-based model of Huntington Disease for high throughput screening. […] The cell death were quantified with a measurement of ATP content in the cells. […]
Among all 230,000 compounds or so, about 310 (0.13%) were called active. Not shown: some 2% with an inconclusive outcome. Only a selection was taken, and actives are over-represented in it overall.
RECORDED_ENDPOINT: cytoprotection (ATP increase)

* O=C1OCCN1C(=O)[C@H]1[C@H](c2ccc(F)cc2)C(c2ccccc2)=NN1c1ccc(Br)cc1 | inactive
* NC(=O)C(=O)N/N=C/c1ccc([N+](=O)[O-])o1 | inactive
* C/C(Nc1ccc2oc(=O)ccc2c1)=C1/C(=O)CC2[C@@H]1C2(C)C (some centres not stated) | inactive
* CCOC(=O)C1=C(C(=O)OCC)C(C(=O)OCC)N(S(=O)(=O)C(F)(F)F)c2ccccc21 (configuration not stated) | inactive
* CCNC(=O)COC(=O)/C=C/c1c(C)nn(Cc2cccc(OC)c2)c1Cl | inactive
* C/C(CC(=O)NC(C)c1ccccc1)=N\NC(N)=S (configuration not stated) | 8.79% [at 10 µM] (inactive)
* CC/C=C\C/C=C\C/C=C\C/C=C\C/C=C\C/C=C\CCC(=O)NCCc1ccc(O)c(O)c1 | inactive
* COc1cccc(CC(=O)N2CCc3nc(COc4ccccc4)c4c(c3C2)CO[C@@H](C)C4)c1 | 16.2% [at 10 µM] (inactive)
* COC(=O)C1(C(C)=O)CC2=CC[C@H]3C(=O)N(c4ccccc4)C(=O)[C@H]3[C@@H]2Cc2ccccc2[C@@H]1C[N+](=O)[O-] (some centres not stated) | inactive
* C[C@H](NC(=O)c1nc[nH]c1C(=O)N[C@@H](C)C(=O)OC(C)(C)C)C(=O)OC(C)(C)C | 22% [at 10 µM] (inactive)
* CCCCC/C=C\C/C=C\CCCCCCCCCC(=O)NCC(=O)O | inactive
* C=C(C)C(=O)c1ccc(F)cc1 | inactive
* O=C1C=C(c2ccccc2)CCC1 | inactive
* COc1cccc([C@@H]2Oc3ccc(Br)cc3C(=O)[C@H]2OC(=O)NCc2ccc3c(c2)OCO3)c1 | inactive
* Oc1ccc(Cl)c2c1CCC2 | inactive
* NC(=O)c1sc(-c2ccsc2)cc1N | inactive
* O=C1/C(=C/c2cccs2)SC(=S)N1C1CCS(=O)(=O)C1 (configuration not stated) | -20.7% [at 10 µM] (inactive)
* O=C(OCc1ccccc1)c1ccc(O)cc1 | inactive
* CCCCc1nnc(NC(=O)CSc2nc(C)cc(=O)[nH]2)s1 | inactive
* O=C(O)CCC(=O)O | inactive
* COCCNc1nc(-c2ccccc2)nc2c1oc1ccccc12 | 13.7% [at 10 µM] (inactive)
* Cc1cc2oc(=O)cc(-c3ccccc3)c2c(C)c1/C=C/c1ccc(F)cc1 | inactive
